The following sequences are shown together with reported Fl-geph Binding Intensity [norm.] values.
system: FL-geph; assay: µSPOT peptide microarray binding assay with full-length geph; settings: µSPOT peptide microarray, GlyRβ full positional scan, intensity normalised to wild-type sequence DLRSNDFSIVGSLPR (=1)

- residues: "GLRSNDFSIVGSLPR [GlyRβ_Full_Positional_Scan_002]"
  targetDesc: "FL-geph"
  Fl-geph Binding Intensity [norm.]: "1.03 norm."
- residues: "DLRSNWFSIVGSLPR [GlyRβ_Full_Positional_Scan_108]"
  targetDesc: "FL-geph"
  Fl-geph Binding Intensity [norm.]: "0.65 norm."
- residues: "DLRSNDFKIVGSLPR [GlyRβ_Full_Positional_Scan_154, GlyR β 414-428 variant S421K]"
  targetDesc: "FL-geph"
  Fl-geph Binding Intensity [norm.]: "0.92 norm."
- residues: "DLRSNDFAIVGSLPR [GlyRβ_Full_Positional_Scan_141, GlyR β 414-428 variant S421A]"
  targetDesc: "FL-geph"
  Fl-geph Binding Intensity [norm.]: "0.79 norm."
- residues: "DLESNDFSIVGSLPR [GlyRβ_Full_Positional_Scan_051]"
  targetDesc: "FL-geph"
  Fl-geph Binding Intensity [norm.]: "1.39 norm."
- residues: "DLRSNDFSIYGSLPR [GlyRβ_Full_Positional_Scan_189, GlyR β 414-428 variant V423Y]"
  targetDesc: "FL-geph"
  Fl-geph Binding Intensity [norm.]: "0.84 norm."
- residues: "DLRSNDFSIVYSLPR [GlyRβ_Full_Positional_Scan_209, GlyR β 414-428 variant G424Y]"
  targetDesc: "FL-geph"
  Fl-geph Binding Intensity [norm.]: "0.48 norm."
- residues: "DLRSNDFSIMGSLPR [GlyRβ_Full_Positional_Scan_198, GlyR β 414-428 variant V423M]"
  targetDesc: "FL-geph"
  Fl-geph Binding Intensity [norm.]: "0.86 norm."
